Items are presented alongside their recorded Avg_Inh (%) @ 50uM.
# measured-target: human IDO1 protein (Homo sapiens, UniProt P14902)
# Construct: purchased ChemPartner Lot; No. 20160706
# Sequence (P14902 whole entry): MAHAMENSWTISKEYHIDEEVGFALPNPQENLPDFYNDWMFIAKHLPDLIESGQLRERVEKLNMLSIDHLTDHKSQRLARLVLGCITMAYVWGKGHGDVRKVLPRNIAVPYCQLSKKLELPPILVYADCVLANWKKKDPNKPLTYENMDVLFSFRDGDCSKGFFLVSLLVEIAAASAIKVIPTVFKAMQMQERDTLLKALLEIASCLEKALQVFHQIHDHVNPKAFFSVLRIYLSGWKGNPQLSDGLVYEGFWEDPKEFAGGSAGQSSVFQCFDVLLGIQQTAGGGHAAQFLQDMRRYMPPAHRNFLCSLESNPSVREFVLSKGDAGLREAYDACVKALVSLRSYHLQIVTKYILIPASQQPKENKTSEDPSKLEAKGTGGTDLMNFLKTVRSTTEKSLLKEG
# assay-details: Enzymatic IDO1 assay (Absorbance 321 assay)
# Type: biochemical
# test-context: 50 uM, average inhibition, Table S2
# Experimental: The standard assay mixture contained modified potassium phosphate buffer at pH 6.5, 100 μM L-tryptophan (Sigma, Cat. […] No. […]). […] Then the assay plate was read at OD321 kinetically in Spectramax. […] Fit the data in […]5.0 software to obtain IC50-values using Equation (2): (2) Y=Bottom+Top-Bottom/1+10^(logIC50-X)×HillSlope where Y stands for inhibition percentage and X stands for compound concentration. All determinations were carried out in duplicate.
quantity-kind: Avg_Inh (%) @ 50uM

{"compound": "Cn1c(=O)c([N+](=O)[O-])c(Nc2ccc(Cl)cc2)c2ccccc21", "quantity-kind": "Avg_Inh (%) @ 50uM", "uom": "%", "result-number": 24.55}
{"compound": "O=C(NCC1CCCO1)c1ccc(COc2ccc3ccccc3c2)cc1 (stereo not drawn)", "quantity-kind": "Avg_Inh (%) @ 50uM", "uom": "%", "result-number": 20.11}
{"compound": "O=[N+]([O-])C1C(O)c2ccccc2OC1c1ccccc1 (stereo not drawn)", "quantity-kind": "Avg_Inh (%) @ 50uM", "uom": "%", "result-number": 13.99}
{"compound": "COc1ccc(C2C(C#N)=C(N)Oc3n[nH]c(-c4ccc(Cl)cc4)c32)cc1O (stereo not drawn)", "quantity-kind": "Avg_Inh (%) @ 50uM", "uom": "%", "result-number": 4.10}
{"compound": "Cc1cccc(-c2nnc(SCC(=O)Nc3c(C)cc(C)cc3C)o2)c1", "quantity-kind": "Avg_Inh (%) @ 50uM", "uom": "%", "result-number": 80.83}
{"compound": "CCCn1c(=O)c(C(=O)Nc2ccccc2N)c(O)c2ccccc21", "quantity-kind": "Avg_Inh (%) @ 50uM", "uom": "%", "result-number": 72.23}
{"compound": "Cc1cc(-c2cccs2)c2c(N)c(C(=O)NCCc3c[nH]c4ccccc34)sc2n1", "quantity-kind": "Avg_Inh (%) @ 50uM", "uom": "%", "result-number": 85.60}
{"compound": "Cc1cc2ccccc2n2c(SCC(=O)Nc3ccc(S(N)(=O)=O)cc3)nnc12", "quantity-kind": "Avg_Inh (%) @ 50uM", "uom": "%", "result-number": 27.63}
{"compound": "Oc1cccc(C(O)CNCc2c(Cl)cccc2Cl)c1 (stereo not drawn)", "quantity-kind": "Avg_Inh (%) @ 50uM", "uom": "%", "result-number": 3.32}
{"compound": "CC(C)(C)NC(=O)Cc1coc2ccc3ccccc3c12", "quantity-kind": "Avg_Inh (%) @ 50uM", "uom": "%", "result-number": 22.41}
{"compound": "CC(=O)c1[nH]c2ccccc2c1C(C)=O", "quantity-kind": "Avg_Inh (%) @ 50uM", "uom": "%", "result-number": 3.68}
{"compound": "COc1cc(C)c(Cl)cc1S(=O)(=O)Nc1cccc(C)c1C", "quantity-kind": "Avg_Inh (%) @ 50uM", "uom": "%", "result-number": 46.52}
{"compound": "COc1cc2c(cc1OC)C(c1ccc(Br)cc1)OCC2 (stereo not drawn)", "quantity-kind": "Avg_Inh (%) @ 50uM", "uom": "%", "result-number": 34.49}
{"compound": "O=C(CSc1ncnc2sc3c(c12)CCC3)Nc1ccccc1", "quantity-kind": "Avg_Inh (%) @ 50uM", "uom": "%", "result-number": 63.45}
{"compound": "Cc1oc2ccc(O)cc2c1C(=O)c1ccc(Br)cc1", "quantity-kind": "Avg_Inh (%) @ 50uM", "uom": "%", "result-number": 67.78}
{"compound": "CC(O)CNCc1ccc(OCc2ccc3c(c2)OCCO3)cc1 (stereo not drawn)", "quantity-kind": "Avg_Inh (%) @ 50uM", "uom": "%", "result-number": -2.06}
{"compound": "CC(=O)Nc1ccc(NC(=O)COc2ccc(Br)cc2C)cc1", "quantity-kind": "Avg_Inh (%) @ 50uM", "uom": "%", "result-number": -4.72}
{"compound": "O=[N+]([O-])c1ccccc1Sc1c(O)ccc2ccccc12", "quantity-kind": "Avg_Inh (%) @ 50uM", "uom": "%", "result-number": 74.65}
{"compound": "O=C(NCCCNC(=O)c1cc2ccccc2[nH]1)c1ccc(F)cc1", "quantity-kind": "Avg_Inh (%) @ 50uM", "uom": "%", "result-number": 5.04}
{"compound": "Cc1cc(=O)oc2cc(OCCSc3ccccc3)ccc12", "quantity-kind": "Avg_Inh (%) @ 50uM", "uom": "%", "result-number": 42.86}
{"compound": "Cc1ccc(C2C(C#N)=C(N)Oc3ccc4ccc(O)cc4c32)cc1 (stereo not drawn)", "quantity-kind": "Avg_Inh (%) @ 50uM", "uom": "%", "result-number": 79.20}
{"compound": "O=C(COc1ccc2ccccc2c1)Nc1cccc(Cl)c1", "quantity-kind": "Avg_Inh (%) @ 50uM", "uom": "%", "result-number": 77.96}
{"compound": "CC(=O)Nc1ccc(NC(=O)C2CC(=O)N(c3ccccc3)C2)cc1 (stereo not drawn)", "quantity-kind": "Avg_Inh (%) @ 50uM", "uom": "%", "result-number": 2.62}
{"compound": "Cc1cccc(NC(=S)NC(=O)c2cc3ccccc3o2)n1", "quantity-kind": "Avg_Inh (%) @ 50uM", "uom": "%", "result-number": 76.32}
{"compound": "c1ccc2c3c(c(CN4CCCCC4)cc2c1)COC3", "quantity-kind": "Avg_Inh (%) @ 50uM", "uom": "%", "result-number": 8.78}
{"compound": "COc1ccc2oc(C(O)c3c(C)oc4ccc(OC)cc34)cc2c1 (stereo not drawn)", "quantity-kind": "Avg_Inh (%) @ 50uM", "uom": "%", "result-number": 55.55}
{"compound": "O=C1OC(c2ccccc2)c2ccc3ccccc3c21 (stereo not drawn)", "quantity-kind": "Avg_Inh (%) @ 50uM", "uom": "%", "result-number": 59.00}
{"compound": "COc1ccc2ccccc2c1/C=N/NC(N)=S", "quantity-kind": "Avg_Inh (%) @ 50uM", "uom": "%", "result-number": 35.60}
{"compound": "Cc1cc(C)c2c(N)c(C(=O)Nc3ccc(S(N)(=O)=O)cc3)sc2n1", "quantity-kind": "Avg_Inh (%) @ 50uM", "uom": "%", "result-number": -8.99}
{"compound": "CC1CCCN(C(C)CS(=O)(=O)c2ccc3ccccc3c2)C1 (stereo not drawn)", "quantity-kind": "Avg_Inh (%) @ 50uM", "uom": "%", "result-number": -2.20}
{"compound": "COc1ccc(CNC(=O)COc2ccc3ccccc3c2)cc1", "quantity-kind": "Avg_Inh (%) @ 50uM", "uom": "%", "result-number": 11.86}
{"compound": "CC(=O)c1nc2ccccc2[nH]1", "quantity-kind": "Avg_Inh (%) @ 50uM", "uom": "%", "result-number": 24.85}
{"compound": "O=c1cc(NCCN2CCCC2)c2ccccc2o1", "quantity-kind": "Avg_Inh (%) @ 50uM", "uom": "%", "result-number": -3.88}
{"compound": "c1ccc2cc(OCc3nc4ccccc4s3)ccc2c1", "quantity-kind": "Avg_Inh (%) @ 50uM", "uom": "%", "result-number": 81.62}
{"compound": "O=C(O)c1ccc(Cn2nnc3cc4ccccc4cc32)cc1", "quantity-kind": "Avg_Inh (%) @ 50uM", "uom": "%", "result-number": -3.23}
{"compound": "COc1ccc2ccccc2c1CNC(C)c1ccccc1 (stereo not drawn)", "quantity-kind": "Avg_Inh (%) @ 50uM", "uom": "%", "result-number": -6.47}
{"compound": "NNC(=O)c1ccc(COc2ccc3c(c2)CCC3)cc1", "quantity-kind": "Avg_Inh (%) @ 50uM", "uom": "%", "result-number": 40.66}
{"compound": "Clc1ccc2[nH]cc(-c3nnnn3-c3ccccc3)c2c1", "quantity-kind": "Avg_Inh (%) @ 50uM", "uom": "%", "result-number": 49.29}
{"compound": "Cc1cc(C)c2c(=O)cc(C(=O)Nc3cc(-c4ccc(F)cc4)no3)oc2c1", "quantity-kind": "Avg_Inh (%) @ 50uM", "uom": "%", "result-number": 79.74}
{"compound": "O=S(=O)(c1ccc(N=Cc2c(O)ccc3ccccc23)cc1)N1CCCCC1", "quantity-kind": "Avg_Inh (%) @ 50uM", "uom": "%", "result-number": 94.68}
{"compound": "O=C(CC1Nc2ccccc2NC1=O)NCc1ccccc1 (stereo not drawn)", "quantity-kind": "Avg_Inh (%) @ 50uM", "uom": "%", "result-number": -1.03}
{"compound": "O=C(COc1ccc2ccccc2c1)c1ccc(Br)cc1", "quantity-kind": "Avg_Inh (%) @ 50uM", "uom": "%", "result-number": 79.98}
